# TARGET OR SYSTEM: GST-Aurora A (Homo sapiens)
# Construct: N-terminal GST fusion with full length Aurora A (1-403 amino acids)
# Sequence (O14965 1-403): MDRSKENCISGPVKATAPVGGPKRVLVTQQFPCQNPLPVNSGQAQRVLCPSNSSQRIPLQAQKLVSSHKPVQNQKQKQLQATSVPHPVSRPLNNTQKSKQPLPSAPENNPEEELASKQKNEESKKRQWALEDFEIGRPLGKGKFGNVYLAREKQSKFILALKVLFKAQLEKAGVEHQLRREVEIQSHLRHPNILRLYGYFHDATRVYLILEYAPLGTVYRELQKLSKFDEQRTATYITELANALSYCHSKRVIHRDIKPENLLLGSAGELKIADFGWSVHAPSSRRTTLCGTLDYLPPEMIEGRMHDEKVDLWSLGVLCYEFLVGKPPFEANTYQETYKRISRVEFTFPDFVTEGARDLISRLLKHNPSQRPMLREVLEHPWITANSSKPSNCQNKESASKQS
# ASSAY INFO: Aurora A kinase biochemical mobility shift assay (Caliper LC3000 / Desktop Profiler)
# TEST PARAMETERS: AK A (Aurora kinase A) inhibition
QUANTITY KIND: IC50

Record excerpt, results attached:
test_smiles=CCN1Cc2c(Nc3ccc(NC(=O)c4ccc(F)cc4C(F)(F)F)cc3)ccnc2NC1=O result="< 0.01 µM"
test_smiles=COc1ccc(CN2Cc3c(Nc4ccc(NC(=O)c5ccccc5)cc4)ccnc3NC2=O)cc1 result="0.1 to 1 µM"
test_smiles=CN1Cc2c(Nc3ccc(NC(=O)c4ccc(F)cc4C(F)(F)F)cc3F)ccnc2NC1=O result="< 0.01 µM"

For each of the items listed, what is its IC50?
1. O=C(Nc1cccc(Cl)c1)Nc1ccc(Oc2ccnc3c2CNC(=O)N3)c(F)c1
2. CN1Cc2c(Nc3ccc(NC(=O)CC(F)(F)F)cc3)ccnc2NC1=O
3. CN1Cc2c(Nc3ccc(NC(=O)c4ccc(F)cc4C(F)(F)F)cc3)ccnc2NC1=O
4. CCN1Cc2c(Nc3ccc(NC(=O)c4ccccc4)cc3)ccnc2NC1=O
5. O=C(Nc1ccc(Nc2ccnc3c2CN(CCO)C(=O)N3)cc1)c1ccc(F)cc1C(F)(F)F
6. COc1cccc(S(=O)(=O)Nc2ccc(Oc3ccnc4c3CNC(=O)N4)c(F)c2)c1
7. O=C(Nc1ccc(Nc2ccnc3c2CN(CCCO)C(=O)N3)cc1)c1ccc(F)cc1C(F)(F)F

1. 0.01 to 0.1 µM
2. 0.1 to 1 µM
3. < 0.01 µM
4. 0.01 to 0.1 µM
5. 0.01 to 0.1 µM
6. 0.1 to 1 µM
7. < 0.01 µM

For each of the items listed, what is its IC50?
1. O=C1NCc2c(Nc3ccc(NC(=O)c4ccc(F)cc4C(F)(F)F)cc3)ccnc2N1
2. COc1ccc(CN2Cc3c(Nc4ccc(NC(=O)Nc5ccc(F)cc5C(F)(F)F)cc4)ccnc3NC2=O)cc1

< 0.01 µM
0.1 to 1 µM

For each of the items listed, what is its IC50?
1. O=C(Nc1ccc(Nc2ccnc3c2CN(C2CC2)C(=O)N3)cc1)c1ccccc1
2. CN1Cc2c(Nc3ccc(NC(=O)c4cccc(F)c4)cc3F)ccnc2NC1=O
3. COc1ccc(CN2Cc3c(Nc4ccc(NC(=O)CC(F)(F)F)cc4)ccnc3NC2=O)cc1
4. COc1ccc(CN2Cc3c(-c4ccc(C(=O)NCc5ccc(F)c(OC)c5)s4)ccnc3NC2=O)cc1
5. CN1Cc2c(Nc3ccc(NC(=O)CC4CC4)cc3)ccnc2NC1=O

0.1 to 1 µM
< 0.01 µM
0.1 to 1 µM
0.01 to 0.1 µM
0.1 to 1 µM

The values you see were collected from patent US8569295B2.
